# Tested on: LIMK1
# CONDITIONS USED: concentration: 1 μM, replicates: in singlicate; n = 1;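 note: KINOMEscan kinase panel screen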
MEASURE NAME: %Inh (%)
Dear colleague, please return just the value in %, with no unit written.

Some solved entries appear below for comparison.
COc1cc2ncn(-c3cc(OCc4ccc(S(C)(=O)=O)cc4)c(C(N)=O)s3)c2cc1OC: 11
COc1cc2ncn(-c3cc(OCCCc4ccccc4)c(C(N)=O)s3)c2cc1OC: 0

Recall the reported %Inh of `Cc1cc(Nc2nc(-c3cccc(C)n3)nc3ccccc23)ccn1` when tested on LIMK1.
0

Retrieve %Inh on LIMK1; query `Nc1ncnc2c1ncn2-c1cccc2ccccc12`
0

====

# Tested on: MYLK2
# CONDITIONS USED: concentration: 1 μM, replicates: in singlicate; n = 1
%Inh values, listed per item
The number alone won't do; follow it with the unit.

Example entries and their recorded answers appear below.
O=C(Nc1ccc2c(c1)OCO2)NC1CCN(c2ccnc(NCc3ccc(F)cc3)n2)CC1 [GSK1379859]: 0%
CCC(=O)c1c(-c2ccccc2)c2cc(Cl)ccc2c(=O)n1Cc1ccc(C(=O)O)cc1: 0%
O=C(NCc1cccs1)c1cc(C(=O)c2c(Cl)cccc2Cl)c[nH]1 [GW823670]: 0%
Cc1c(Cn2c(C)nn3c(=O)cc(N4CCO[C@H](C)C4)nc23)cccc1C(F)(F)F [GSK2373690]: 2%
O=C(NCCNc1ccnc(Nc2ccc(F)cc2)n1)Nc1ccc2c(c1)OCO2 [GSK1379882]: 15%

Give the reported %Inh for this compound. CCS(=O)(=O)c1ccc(OC)c(Nc2ncc(-c3ccc(F)cc3)o2)c1.Cl [GW591947]
2%

In one line, give reported %Inh of the entry FC(F)(F)c1ccc(-c2ncn(CCCN3CCOCC3)c2-c2ccncc2)cc1 [SB-217780] .
0%

Dear colleague, please send me the reported %Inh for COc1ccc(-n2cnc3c(N)ncnc32)cc1 [SKF-97236] when you can.
52%

====

# Tested on: RIPK5
# CONDITIONS USED: concentration: 1 μM, replicates: in singlicate; n = 1
MEASURE NAME: %Inh (%)
Please give a number only; it is taken to be in %.

Consider the following illustrative entries.
COC(=O)c1c(-c2ccccc2)c2cc(Br)ccc2c(=O)n1Cc1ccc(NC(=O)CCC(=O)O)cc1: 21
COc1cccc(C2=C(N(C)c3ccccc3)C(=O)NC2=O)c1: 0
CCc1nc(-c2cccc(C)c2)c(-c2ccncc2)s1: 0
CC(C)(C)c1ccc(C(=O)Nc2cn3cc(-c4ccccc4)ccc3n2)cc1: 2
COc1cc2ncn(-c3cc(OCc4ccncc4Br)c(C(N)=O)s3)c2cc1OC: 9
O=C(NCCNc1ccnc(Nc2ccc(F)cc2)n1)Nc1ccc2c(c1)OCO2: 0

For `FC(F)(F)c1ccc(-c2ncn(CCCN3CCOCC3)c2-c2ccncc2)cc1` , write its %Inh.
0

Consider the molecule `Cc1ccc(Oc2ccc(Nc3ncnc4cc[nH]c34)cc2C)cn1` . State its measured %Inh.
14

Provide measured %Inh value, entry: `Cc1cccc(-c2nc(Nc3ccc4c(cnn4C)c3)c3ccccc3n2)n1`
0

Check the records and state %Inh for `Cc1nnc(-c2ccc(C)c(-c3ccc(C(=O)O)cc3)c2)o1`
0

Input `Nc1nccc2scc(-c3ccc4c(c3)CCN4C(=O)Cc3ccccc3)c12` , output reported %Inh.
12

====

Entries annotated with measured %Inh
# Tested on: CDK3
# CONDITIONS USED: concentration: 1 μM, replicates: in singlicate; n = 1
Kindly provide the numeric value in % only, without the unit symbol.

Consider the following illustrative entries.
CC(C)(C)c1ccc(C(=O)Nc2cn3cc(-c4ccccc4)ccc3n2)cc1: 12
COc1ccc(-n2cnc3c(N)ncnc32)cc1 [SKF-97236]: 25
CCCNC(=O)Nc1ccc(Oc2ncnc3ccn(C)c23)cc1: 0

# input for lookup
Recall and state the measured %Inh for COc1cccc(-n2cnc3c(N)ncnc32)c1 [SKF-97416] .
17

====

# System: LTK
# CONDITIONS USED: concentration: 1 μM, replicates: in singlicate; n = 1
MEASURE NAME: %Inh (%)
Enter your answer as a number in %; do not include the unit.

Some solved entries appear below for comparison.
COc1ccc(-n2cnc3c(N)ncnc32)cc1: 20
Cc1ccc(-c2ccc3c(ccc4sc5c(c43)NC[C@@H](C)N=C5N(C)C)n2)cn1: 0
COc1cc2ncn(-c3cc(OCc4ccncc4)c(C(N)=O)s3)c2cc1OC: 2
O=C(Nc1n[nH]c2cc(-c3ccccc3F)ccc12)C1CC1: 0

Specify reported %Inh for the compound shown: `Fc1cccc(CSc2nnc(-c3ccc4c(c3)CCO4)o2)c1`
16

====

Parameter %Inh: see the listing below.
# Tested on: PIM2
# CONDITIONS USED: concentration: 1 μM, replicates: in singlicate; n = 1
Return type: number; implicit unit %.

Example compounds with recorded %Inh:
Cl.c1ccc(Cn2cnc3cc(Nc4ncnc5ccccc45)ccc32)cc1: 0
Nc1n[nH]c2ncc(-c3ccccc3)cc12: 0
COc1cccc(C2=C(Nc3cccc(C(=O)O)c3)C(=O)NC2=O)c1: 0
O=c1cc(N2CCOCC2)nc2n(Cc3ccc(F)c(Cl)c3)ccn12: 0
COc1cc(Nc2nccc(N3CCC(NC(=O)C4COc5ccccc5O4)C3)n2)cc(OC)c1OC (stereo not shown): 0

Fill in %Inh for record COc1ccc(CNC(=O)NC2CCN(c3ccnc(Nc4ccc(F)cc4)n3)C2)cc1 (stereo not shown)
0

Give reported %Inh value for `OCCCNc1nccc(-c2c(-c3cccc(C(F)(F)F)c3)nn3cc(C(F)(F)F)ccc23)n1`
0

Tell us which %Inh value is on record for `Nc1ncnc2c1ncn2-c1cccc(F)c1`
18

Dear colleague, please send me the reported %Inh for `COc1ccc(-c2cc3c(C)nc(N)nc3n([C@H]3CC[C@H](O)CC3)c2=O)cn1` when you can.
0

Answer with the recorded %Inh of `O=C(Nc1ccc2c(c1)OCO2)NC1CCN(c2ccnc(NCc3ccc(F)cc3)n2)CC1` only.
0

====

Listed below: %Inh values for each entry.
# System: MLK1
# Construct: gene MAP3K9
# CONDITIONS USED: concentration: 1 μM, replicates: in singlicate; n = 1
Report as: number unit

Below: 3 molecules and their reported %Inh.
COc1cc2ncn(-c3cc(OCc4ccncc4)c(C(N)=O)s3)c2cc1OC [GSK336313]: 0%
Cc1nn2c(=O)cc(N3CCOCC3)nc2n1Cc1cccc(Cl)c1Cl [GSK2342769]: 0%
COc1ccc(Nc2nccc(N3CCC(NS(=O)(=O)c4ccc(NC(C)=O)cc4)C3)n2)cc1 (stereo not drawn) [GSK1379729]: 0%

Determine its reported %Inh: CCn1c(-c2ccoc2)nc2cnccc21 [SB-733887]
0%

Give %Inh for COc1cc(Nc2nccc(N3CCC(NC(=O)C(C)c4ccc(Cl)cc4)C3)n2)cc(OC)c1OC (stereo not drawn) [GSK1379757]
22%

Tell me %Inh reported for CN1C(=O)C(Nc2cc(Cl)c(O)c(Cl)c2)=C(c2ccc(Cl)cc2)C1=O [SB-404321]
0%

Query %Inh for `CCC(=O)c1c(-c2ccccc2)c2cc(Cl)ccc2c(=O)n1Cc1cc(C(=O)NC2CC2)n(C)n1`
0%

Please list %Inh recorded for the molecule COc1cc(Nc2ccnc3ccc(C(F)(F)F)cc23)cc(OC)c1OC [GW577382]
3%

Read off the recorded %Inh for Cc1cc(Nc2nc(-c3cccc(C)n3)nc3ccccc23)ccn1 [GW872411]
0%

Give the measured %Inh for Cc1nnc(-c2ccc3ncn(-c4ccc(S(C)=O)cc4)c3c2)o1 (stereo not drawn)
0%

Hello, please tell me recorded %Inh for this one: `CCC(=O)c1c(-c2ccccc2)c2cc(Cl)ccc2c(=O)n1Cc1cc(S(C)(=O)=O)n(CC(N)=O)n1`
0%

// Input: Cc1ccccc1COc1cc(-n2cnc3cc(Cl)ccc32)sc1C(N)=O [GW813349] . Output its %Inh only.
11%

====

# Tested on: MARK4
# CONDITIONS USED: concentration: 1 μM, replicates: in singlicate; n = 1
MEASURE NAME: %Inh (%)
// note: answer is a bare numeric in %

Consider the following illustrative entries.
Cc1c(Cn2c(C)nn3c(=O)cc(N4CCO[C@H](C)C4)nc23)cccc1C(F)(F)F: 0
COc1cc2ncn(-c3cc(OCCCc4ccccc4)c(C(N)=O)s3)c2cc1OC: 0
Nc1n[nH]c2ncc(-c3ccccc3)cc12: 0

Quote %Inh with test system MARK4 for `Cc1cccc(-c2nc(Nc3ccc4c(cnn4C)c3)c3ccccc3n2)n1`
8

Please look at `CN(C)c1cc(-c2ccc3c(N)n[nH]c3c2)nc(N)n1` and tell me its recorded %Inh on MARK4.
1

Recall the reported %Inh of `COc1cccc(C2=C(Nc3cccc(C(=O)O)c3)C(=O)NC2=O)c1` when tested on MARK4.
23

Report its %Inh with MARK4 as the test system: `COc1ccc(-c2cc3c(C)nc(N)nc3n([C@H]3CC[C@H](OCCO)CC3)c2=O)cn1`
0

Give %Inh; test system MARK4; molecule `CCC(=O)c1c(-c2ccccc2)c2cc(Cl)ccc2c(=O)n1Cc1cc(S(C)(=O)=O)n(CC(N)=O)n1`
5

Tell me %Inh of `Cn1c(=O)c(F)c(Nc2ccc(I)cc2F)c2c(=O)n(OC[C@H](O)CO)cnc21` when tested on MARK4.
33

Output reported %Inh of the molecule `COc1cc2ncn(-c3cc(OCc4ccncc4Br)c(C(N)=O)s3)c2cc1OC` on MARK4.
39

Please report the measured %Inh for `CCn1c(-c2ccoc2)nc2cnccc21` tested on MARK4.
0

Determine reported %Inh for `Fc1cccc(CSc2nnc(-c3ccc4c(c3)CCO4)o2)c1` ; test system: MARK4.
0
